Origin of measurements: the array DNA melting data of Ke et al. (doi:10.1101/2024.01.08.574731)

# procedure.text: folding enthalpy; higher = less favourable; fluorescence melt of hairpins on a sequencing array, two-state fit
# protocol.conditions: sodium 0.088 M
Record form. Attribute: folding enthalpy. Fill in for each entry.
Give bare numbers, in kcal/mol.

Per the record, GTCTGAGGAAACTTAGAC ((((.((....)).)))) has folding enthalpy of -30.7

Per the record, GCAGCGCGAAAGCCCTGC ((((.((....)).)))) has folding enthalpy of -25.9

Per the record, GTCATTGGAAACGATGAC (((((.(....).))))) has folding enthalpy of -41.1

Next:
Per the record, GATCGTCAAGACGATC ((((((....)))))) has folding enthalpy of -37.5

----------
# procedure.text: folding enthalpy; higher = less favourable; fluorescence melt of hairpins on a sequencing array, two-state fit
# protocol.conditions: sodium 0.088 M
Record form. Attribute: folding enthalpy. Fill in for each entry.
Answers are plain numbers, in kcal/mol.

Per the record, GTGGTACGAAAGTACAC (((.(((....)))))) has folding enthalpy of -15

I would be grateful if you could provide folding enthalpy for each of the following entries.
1. GTTTGCACGAAAGTGAAC (((..(((....))))))
2. GGGCACGAAAGTGAACCC ((((((....)))..)))
3. GATCGTTCAACGATC ((((((...))))))
4. GCTGTGGAAACACAGC ((((((....))))))
5. CGCCTGCGGAAACGCGCG (((..(((....))))))
6. GACCACCGAAAGGTCGTC (((.(((....))).)))

Outgoing:
1. -13.9
2. -16.6
3. -42
4. -37.4
5. -16.9
6. -29.5

----------
# procedure.text: melting temperature; fluorescence melt of hairpins on a sequencing array, two-state fit, raised by 9.35 °C to match UV melts
# protocol.conditions: sodium 0.088 M
property.name: Tm (°C)
Give bare numbers, in °C.

Per the record, GTAAACGGAAACGTTTGC (.(((((....))))).) has Tm of 48.5

I would be grateful if you could provide Tm for each of the following entries.
1. GGACCACGAAAGTGTTCC (((.(((....))).)))
2. GTAATTGGAAACAGTTAC ((((.((....)).))))
3. GCGTGACTACGC ((((....))))
4. GATCGTGCTAACGATC ((((((....))))))
5. GTGTGCGGAAACGCGTAC ((..(((....)))..))
6. GCGTTTGAAAAAACGC ((((((....))))))
7. GGGTACCGAAAGGTCCC (((.(((....))))))

Outgoing:
49.4
35.9
59.4
66.3
43.7
65.9
54.9

----------
Record form. Attribute: folding enthalpy. Fill in for each entry.
# procedure.text: folding enthalpy; higher = less favourable; fluorescence melt of hairpins on a sequencing array, two-state fit
# protocol.conditions: sodium 0.088 M
One number for each entry, in kcal/mol.

Per the record, GCTAGGCGAAAGCCATGC ((..(((....)))..)) has folding enthalpy of -17.7

I would be grateful if you could provide folding enthalpy for each of the following entries.
1. GGATGTGGAAACACGTTC (.(.(((....))).).)
2. GGAGGTGGAAACACTTCC (((.(((....))).)))
3. GCATAAGGAAACTTATGC (((((((....)))))))
4. GCGACTTATCGC ((((....))))
5. GATCAATATATTGATC ((((((....))))))
6. GATCCAAAGATGGATC ((((((....))))))
7. GCAGGGCGAAAGCCTGC (((.(((....))))))

Outgoing:
1: -21.3; 2: -35.2; 3: -39.1; 4: -24.1; 5: -47.1; 6: -26.4; 7: -20.3

I would be grateful if you could provide folding enthalpy for each of the following entries.
1. GCAAGGCGAAAGCCGGGC ((..(((....)))..))
2. GGGCGACGAAAGTCACCC (((.(((....))).)))
3. GGAAACGGAAACGTTTTC (.(((((....))))).)

Outgoing:
1: -20.9; 2: -43.3; 3: -28.3

I would be grateful if you could provide folding enthalpy for each of the following entries.
1. GTGGTCGGAAACGACTGC (..((((....))))..)
2. GGACGAGGAAACCCGTCC (((((.(....).)))))
3. GAGATGGGAAACCATCCC (.(((((....))))).)
4. GATCAATCATTGATC ((((((...))))))
5. GATCGCAGACGCGATC ((((((....))))))
6. GCAACCGAAAGGTCATGC ((((((....)))..)))

Outgoing:
-14.3
-39.1
-13.1
-27.1
-30.9
-13

I would be grateful if you could provide folding enthalpy for each of the following entries.
1. GATCGAGTAATCGATC ((((((....))))))
2. GCTGAGGAAACTCAGC ((((((....))))))
3. GGGAGGCGAAAGCCCCC (((.(((....))))))

Outgoing:
[-39, -37.7, -19.2]

I would be grateful if you could provide folding enthalpy for each of the following entries.
1. GGCCGGGGAAACCCGACC ((.((((....)))).))
2. GGACTCACGAAAGTGTCC (((..(((....))))))

Outgoing:
[-34.5, -19.3]

I would be grateful if you could provide folding enthalpy for each of the following entries.
1. GTGCTGTCGAAAGACCAC (((..(((....))))))
2. GCCAATGGAAACATTGAC (.(((((....))))).)
3. GCTTTCGGAAACGAAAGC (((((((....)))))))
4. GCAATTGGAAACAATCGC ((.((((....)))).))
5. GATATAGGAAACTGTATC ((((.((....)).))))
6. GCCGCGCGAAAGCGCCGC ((.((((....)))).))
7. GATCTCCTCAGAGATC ((((((....))))))

Outgoing:
[-13.1, -22.2, -43.1, -27.4, -21.4, -16.6, -37.7]

I would be grateful if you could provide folding enthalpy for each of the following entries.
1. GCAGACGAAAGTCGATGC ((((((....)))..)))
2. GGACTAGGAAACCAGTCC (((((.(....).)))))
3. GCTTGGCGAAAGCGAAGC ((((.((....)).))))

Outgoing:
1. -17.6
2. -31
3. -18.6

I would be grateful if you could provide folding enthalpy for each of the following entries.
1. CGCGCGGAAACGCTAGCG ((((((....)))..)))
2. GATCTGGTTCCAGATC ((((((....))))))
3. GTGATACCGAAAGGTCAC (((..(((....))))))
4. GCAGCTGGAAACAGCTAC (.(((((....))))).)
5. GTGCTGAAAAGCAC (((((....)))))

Outgoing:
[-31, -47.1, -19.5, -14, -28.1]
